Data provenance: ChEMBL document CHEMBL3045468

system: Escherichia coli; experiment: Antibacterial activity against Escherichia coli 319 clinical isolate assessed as growth inhibition at 1 mg/ml after 24 hr by NCCLS agar diffusion method; format: functional; conditions: Escherichia coli, 319, 24 h; read-out: DIZ
Quick reference for zone of inhibition at 1000 µg/mL among some compounds
MEASURED_ATTRIBUTE: zone of inhibition at 1000 µg/mL (mm)

>>> print(df.to_string())
                                 smiles_repr                measured_attribute  measured_value
 0     CN(C)c1ccc(C2(O)C(=O)c3ccccc3C2=O)cc1  zone of inhibition at 1000 µg/mL               7
 1   Nc1ccc(C2(O)C(=O)c3ccccc3C2=O)c2ncccc12  zone of inhibition at 1000 µg/mL               8
 2  Cc1ccc(NC2(c3cc(C)c(C)cc3N)C(=O)c3ccccc3C2=O)cc1C  zone of inhibition at 1000 µg/mL               7
 3  Cc1cc(C2(c3cc(C)c(N)cc3F)C(=O)c3ccccc3C2=O)c(F)cc1N  zone of inhibition at 1000 µg/mL               7
 4  Nc1ccc(C2(c3ccc(N)cc3)C(=O)c3ccccc3C2=O)cc1  zone of inhibition at 1000 µg/mL               6
 5   CCN(CC)c1ccc(C2(O)C(=O)c3ccccc3C2=O)cc1  zone of inhibition at 1000 µg/mL               9
 6  CNc1ccc(C2(c3ccc(NC)cc3)C(=O)c3ccccc3C2=O)cc1  zone of inhibition at 1000 µg/mL               7
 7  Nc1ccc(C2(c3ccc(N)c(Cl)c3)C(=O)c3ccccc3C2=O)cc1Cl  zone of inhibition at 1000 µg/mL               8
 8  Nc1c(Cl)cc(Cl)cc1C1(Nc2ccc(Cl)cc2Cl)C(=O)c2ccccc2C1=O  zone of inhibition at 1000 µg/mL               8
 9  Cc1cc(C2(c3ccc(N)c(C)c3)C(=O)c3ccccc3C2=O)ccc1N  zone of inhibition at 1000 µg/mL               7
10  Nc1ccc(C2(c3ccc(N)c(Br)c3)C(=O)c3ccccc3C2=O)cc1Br  zone of inhibition at 1000 µg/mL               8

====

test system: Bacillus pumilus; test: Antibacterial activity against Bacillus pumilus 11778 clinical isolate assessed as growth inhibition at 1 mg/ml after 24 hr by NCCLS agar diffusion method; format: functional; conditions: Bacillus pumilus, 11778, 24 h; read-out: DIZ
Quick reference for zone of inhibition at 1000 µg/mL among some compounds
MEASURED_ATTRIBUTE: zone of inhibition at 1000 µg/mL (mm)

>>> df
                                smiles_repr               tgt  unit  measured_value
0   CCN(CC)c1ccc(C2(O)C(=O)c3ccccc3C2=O)cc1  Bacillus pumilus    mm               7
1  COc1cc(C2(c3ccc(N)c(OC)c3)C(=O)c3ccccc3C2=O)ccc1N  Bacillus pumilus    mm               8
2  Cc1cc(C2(c3ccc(N)c(C)c3)C(=O)c3ccccc3C2=O)ccc1N  Bacillus pumilus    mm               7
3  Nc1ccc(C2(c3ccc(N)c(Br)c3)C(=O)c3ccccc3C2=O)cc1Br  Bacillus pumilus    mm               8
4  Cc1cc(C2(c3cc(C)c(N)cc3F)C(=O)c3ccccc3C2=O)c(F)cc1N  Bacillus pumilus    mm               7
5  Cc1cc(C2(c3cc(C)c(N)c(C)c3)C(=O)c3ccccc3C2=O)cc(C)c1N  Bacillus pumilus    mm               9
6  Nc1ccc(C2(c3ccc(N)cc3)C(=O)c3ccccc3C2=O)cc1  Bacillus pumilus    mm               8

====

system: Candida tropicalis; test: Antifungal activity against Candida tropicalis clinical isolate assessed as growth inhibition after 96 hr by agar dilution method; assay type: functional
MEASURED_ATTRIBUTE: MIC (µg/mL)

>>> df
                                smiles_repr  measured_value
0  Nc1ccc(C2(c3ccc(N)c(Br)c3)C(=O)c3ccccc3C2=O)cc1Br            2000
1  Nc1ccc(C2(c3ccc(N)cc3)C(=O)c3ccccc3C2=O)cc1            1000
2  Cc1cc(C2(c3ccc(N)c(C)c3)C(=O)c3ccccc3C2=O)ccc1N            2000
3  Nc1c(Cl)cc(Cl)cc1C1(Nc2ccc(Cl)cc2Cl)C(=O)c2ccccc2C1=O            1000
4        OC(Cn1cncn1)(Cn1cncn1)c1ccc(F)cc1F               8

====

Quick reference for zone of inhibition at 1000 µg/mL among some compounds
tested on: Vibrio cholerae; experiment: Antibacterial activity against Vibrio cholerae 759 clinical isolate assessed as growth inhibition at 1 mg/ml after 24 hr by NCCLS agar diffusion method; type: functional; conditions: Vibrio cholerae, 759, 24 h; read-out: DIZ
MEASURED_ATTRIBUTE: zone of inhibition at 1000 µg/mL (mm)

                                smiles_repr  unit  measured_value
0  Cc1cc(C2(c3ccc(N)c(C)c3)C(=O)c3ccccc3C2=O)ccc1N    mm               8
1  CNc1ccc(C2(c3ccc(NC)cc3)C(=O)c3ccccc3C2=O)cc1    mm               8
2  COc1cc(C2(c3ccc(N)c(OC)c3)C(=O)c3ccccc3C2=O)ccc1N    mm               7
3  Nc1ccc(C2(c3ccc(N)c(Br)c3)C(=O)c3ccccc3C2=O)cc1Br    mm               9
4  Nc1c(Cl)cc(Cl)cc1C1(Nc2ccc(Cl)cc2Cl)C(=O)c2ccccc2C1=O    mm               7
5  COc1cc(C2(Nc3cc(Cl)ccc3OC)C(=O)c3ccccc3C2=O)c(Cl)cc1N    mm               8

====

Quick reference for zone of inhibition at 1000 µg/mL among some compounds
tested on: Aspergillus niger; assay: Antifungal activity against Aspergillus niger clinical isolate assessed as growth inhibition at 1 mg/ml after 96 hr by NCCLS agar diffusion method; type: functional; conditions: read-out: DIZ
MEASURED_ATTRIBUTE: zone of inhibition at 1000 µg/mL (mm)

                                smiles_repr  unit  measured_value
0  Nc1ccc(C2(c3ccc(N)cc3)C(=O)c3ccccc3C2=O)cc1    mm              10
1  Nc1ccc(C2(c3ccc(N)c(Br)c3)C(=O)c3ccccc3C2=O)cc1Br    mm              12
2  Cc1cc(C2(c3ccc(N)c(C)c3)C(=O)c3ccccc3C2=O)ccc1N    mm             7.6
3  Nc1c(Cl)cc(Cl)cc1C1(Nc2ccc(Cl)cc2Cl)C(=O)c2ccccc2C1=O    mm               8

====

system: Candida albicans; test: Antifungal activity against Candida albicans clinical isolate assessed as growth inhibition after 96 hr by agar dilution method; format: functional
Quick reference for MIC among some molecules
MEASURED_ATTRIBUTE: MIC (µg/mL)

In [3]: df
Out[3]:
                                   molecule   unit  measured_value
0  Cc1cc(C2(c3ccc(N)c(C)c3)C(=O)c3ccccc3C2=O)ccc1N  µg/mL            1000
1  Nc1ccc(C2(c3ccc(N)cc3)C(=O)c3ccccc3C2=O)cc1  µg/mL            1000
2  OC(Cn1cncn1)(Cn1cncn1)c1ccc(F)cc1F [FLUCONAZOLE]  µg/mL               4
3  Nc1ccc(C2(c3ccc(N)c(Br)c3)C(=O)c3ccccc3C2=O)cc1Br  µg/mL            2500

====

test system: Shigella dysenteriae; assay: Antibacterial activity against Shigella dysenteriae 15 clinical isolate assessed as growth inhibition at 1 mg/ml after 24 hr by NCCLS agar diffusion method; format: functional; settings: Shigella dysenteriae, 15, 24 h; read-out: DIZ
Quick reference for zone of inhibition at 1000 µg/mL among some molecules
MEASURED_ATTRIBUTE: zone of inhibition at 1000 µg/mL (mm)

In [3]: df
Out[3]:
                                smiles_repr                   tgt                measured_attribute  measured_value
0  Nc1ccc(C2(c3ccc(N)cc3)C(=O)c3ccccc3C2=O)cc1  Shigella dysenteriae  zone of inhibition at 1000 µg/mL               7
1  Nc1ccc(C2(c3ccc(N)c(Cl)c3)C(=O)c3ccccc3C2=O)cc1Cl  Shigella dysenteriae  zone of inhibition at 1000 µg/mL               6
2  Cc1cc(C2(c3ccc(N)c(C)c3)C(=O)c3ccccc3C2=O)ccc1N  Shigella dysenteriae  zone of inhibition at 1000 µg/mL               7
3   CCN(CC)c1ccc(C2(O)C(=O)c3ccccc3C2=O)cc1  Shigella dysenteriae  zone of inhibition at 1000 µg/mL               7
4  Nc1c(Cl)cc(Cl)cc1C1(Nc2ccc(Cl)cc2Cl)C(=O)c2ccccc2C1=O  Shigella dysenteriae  zone of inhibition at 1000 µg/mL               7
